The measured values listed here are drawn from ChEMBL document CHEMBL4725368.

# assay details: Intrinsic clearance in human hepatocytes assessed per 10^6 cells
# Type: ADME, cell-based, Hepatocyte
# run parameters: read-out: CLH
measurement kind: hepatocyte CLint (µL/min/1e6 cells)
Unit µL/min/1e6 cells implied. Number only.

Illustrative cases are given below, each with its answer.
Nc1nc(-n2cc(C(=O)O)c(=O)c3cc(F)c([C@H]4C[C@H](O)C4)c(Cl)c32)c(F)cc1F 6.8
Nc1nc(-n2cc(C(=O)O)c(=O)c3cc(F)c([C@H]4C[C@@H](O)C4)c(Cl)c32)c(F)cc1F 9.2
Nc1nc(-n2cc(C(=O)O)c(=O)c3cc(F)c(N4CC(N)C4)c(Cl)c32)c(F)cc1F 3

For this molecule ( Nc1nc(-n2cc(C(=O)O)c(=O)c3cc(F)c(N4CC(O)C4)c(Cl)c32)c(F)cc1F ), measured hepatocyte CLint is 3
